# Assay Details: Oral bioavailability in Sprague-Dawley rat at […] administered as single dose by LC-MS/MS analysis
# Format: ADME, organism-based
# Measurement Parameters: in vivo
Measured Endpoint: bioavailability

For O=C(CC12CCC(C(=O)O)(CC1)C2)N1CCc2c(n(Cc3ccc(F)cc3)c3ncccc23)C1 , what is its reported bioavailability?
51.6%

====

# Assay Details: Protein binding in human plasma measured after 4 hrs by LC-MS/MS analysis
# Assay type: ADME, cell-free
# Measurement Parameters: read-out: PPB (converted)
Lab note: compare fraction unbound at 4 h against 0.009. Equal or greater, write Condition met. Smaller, write Condition not met.

Some solved cases for reference:
| Cpd Smiles | Assigned Category |
| --- | --- |
| O=C(C[C@H]1CC[C@H](C(=O)O)CC1)N1CCc2c(n(Cc3cccc(F)c3)c3ncccc23)C1 | Condition not met |
| O=C(CC12CCC(C(=O)O)(CC1)C2)N1CCc2c(n(Cc3ccc(F)cc3F)c3ncccc23)C1 | Condition not met |
| O=C(C[C@H]1CC[C@@H](C(=O)O)CC1)N1CCc2c(n(Cc3ccc(F)cc3F)c3ncccc23)C1 | Condition not met |
| O=C(C[C@H]1CC[C@H](C(=O)O)CC1)N1CCc2c(n(Cc3ccc(F)cc3F)c3ncccc23)C1 | Condition met |
| O=C(O)c1ccc(CC(=O)N2CCc3c(n(Cc4cccc(F)c4)c4ncccc34)C2)cc1 | Condition met |
| O=C(CC12CCC(C(=O)O)(CC1)C2)N1CCc2c(n(Cc3ccc(F)cc3)c3ncccc23)C1 | Condition met |
| O=C(CC12CCC(C(=O)O)(CC1)CC2)N1CCc2c(n(Cc3ccc(F)cc3)c3ncccc23)C1 | Condition met |
| O=C(C[C@H]1CC[C@@H](C(=O)O)CC1)N1CCc2c(n(Cc3cccc(F)c3)c3ncccc23)C1 | Condition not met |

Next:
Say whether O=C(O)c1cccc(CC(=O)N2CCc3c(n(Cc4cccc(F)c4)c4ncccc34)C2)c1 shows fraction unbound at 4 h of 0.009 or more.
Condition met

====

# Assay Details: Cmax in SCID mouse at 1 mg/kg, po administered as single dose by LC-MS/MS analysis
# Assay type: ADME, organism-based
# Design: dose 1 mg/kg, route oral
# Measurement Parameters: in vivo
Measured Endpoint: Cmax
Quote the value and follow it with the unit of measurement.

For O=C(CC12CCC(C(=O)O)(CC1)C2)N1CCc2c(n(Cc3ccc(F)cc3)c3ncccc23)C1 , what is its reported Cmax?
124 ng/mL

====

# Assay Details: Protein binding in rat plasma measured after 4 hrs by LC-MS/MS analysis
# Assay type: ADME, cell-free
# Measurement Parameters: read-out: PPB (converted)
Recorded fraction unbound at 4 h for the following compounds
Reply with just the number.

| Cpd Smiles | Measured Endpoint | Obs Value |
| --- | --- | --- |
| O=C(CC12CCC(C(=O)O)(CC1)CC2)N1CCc2c(n(Cc3ccc(F)cc3)c3ncccc23)C1 | fraction unbound at 4 h | 0.054 |
| C[C@]1(C(=O)O)CC[C@H](CC(=O)N2CCc3c(n(Cc4ccc(F)cc4F)c4ncccc34)C2)CC1 | fraction unbound at 4 h | 0.039 |
| O=C(C[C@H]1CC[C@H](C(=O)O)CC1)N1CCc2c(n(Cc3ccc(F)cc3F)c3ncccc23)C1 | fraction unbound at 4 h | 0.021 |

For O=C(CC12CCC(C(=O)O)(CC1)C2)N1CCc2c(n(Cc3ccc(F)cc3)c3ncccc23)C1 , what is its reported fraction unbound at 4 h?
0.049

For O=C(CC12CCC(C(=O)O)(CC1)C2)N1CCc2c(n(Cc3ccc(F)cc3F)c3ncccc23)C1 , what is its reported fraction unbound at 4 h?
0.061

For O=C(CC12CCC(C(=O)O)(CC1)CC2)N1CCc2c(n(Cc3ccc(F)cc3F)c3ncccc23)C1 , what is its reported fraction unbound at 4 h?
0.043

====

# Assay Details: AUC in Sprague-Dawley rat at 0.5 mg/kg, po administered as single cassette dosing by LC-MS/MS analysis
# Type: ADME, organism-based
# Measurement Parameters: in vivo
Lab note: compare AUC against 700 ng·h/mL. Equal or greater, write 1. Smaller, write -1.

Some solved cases for reference:
| Cpd Smiles | Assigned Category |
| --- | --- |
| O=C(CC12CCC(C(=O)O)(CC1)C2)N1CCc2c(n(Cc3ccc(F)cc3F)c3ncccc23)C1 | -1 |
| O=C(CC12CCC(C(=O)O)(CC1)CC2)N1CCc2c(n(Cc3ccc(F)cc3F)c3ncccc23)C1 | -1 |
| O=C(CC12CCC(C(=O)O)(CC1)C2)N1CCc2c(n(Cc3ccc(F)cc3)c3ncccc23)C1 | 1 |

Say whether O=C(CC12CCC(C(=O)O)(CC1)CC2)N1CCc2c(n(Cc3ccc(F)cc3)c3ncccc23)C1 shows AUC of 700 ng·h/mL or more.
-1

Say whether C[C@]1(C(=O)O)CC[C@H](CC(=O)N2CCc3c(n(Cc4ccc(F)cc4F)c4ncccc34)C2)CC1 shows AUC of 700 ng·h/mL or more.
-1

====

Recorded pIC50 for the following compounds
# Study Target: Autotaxin (Homo sapiens)
# Assay Details: Inhibition of recombinant human ATX assessed as reduction in choline release using LPC(16:0) as substrate incubated for 15 hrs
The scale used: pIC50 is minus the common logarithm of the concentration in molar units.

Consider the worked cases shown below.
| Cpd Smiles | Study Target | pIC50 |
| --- | --- | --- |
| O=C(CC12CCC(C(=O)O)(CC1)CC2)N1CCc2c(n(Cc3ccc(F)cc3F)c3ncccc23)C1 | Autotaxin (Homo sapiens) | 8.05 |
| O=C(O)CCCCC(=O)N1CCc2c(n(Cc3ccccc3)c3ncccc23)C1 | Autotaxin (Homo sapiens) | 6.62 |
| CC(C)(CCC(=O)N1CCc2c(n(Cc3cccc(F)c3)c3ncccc23)C1)CC(=O)O | Autotaxin (Homo sapiens) | 7.62 |
| O=C(C[C@H]1CC[C@@H](C(=O)O)CC1)N1CCc2c(n(Cc3ccc(F)cc3F)c3ncccc23)C1 | Autotaxin (Homo sapiens) | 7.72 |
| O=C(O)c1ccc(CC(=O)N2CCc3c(n(Cc4cccc(F)c4)c4ncccc34)C2)cc1 | Autotaxin (Homo sapiens) | 7.55 |
| O=C(CC12CCC(C(=O)O)(CC1)C2)N1CCc2c(n(Cc3ccc(F)cc3F)c3ncccc23)C1 | Autotaxin (Homo sapiens) | 7.96 |
| O=C(CC12CCC(C(=O)O)(CC1)C2)N1CCc2c(n(Cc3ccc(F)cc3)c3ncccc23)C1 | Autotaxin (Homo sapiens) | 8.00 |
| CC(C)(CCCC(=O)N1CCc2c(n(Cc3cccc(F)c3)c3ncccc23)C1)C(=O)O | Autotaxin (Homo sapiens) | 7.77 |
| O=C(C[C@H]1CC[C@@H](C(=O)O)CC1)N1CCc2c(n(Cc3cccc(F)c3)c3ncccc23)C1 | Autotaxin (Homo sapiens) | 7.54 |
| O=C(C[C@H]1CC[C@H](C(=O)O)CC1)N1CCc2c(n(Cc3cccc(F)c3)c3ncccc23)C1 | Autotaxin (Homo sapiens) | 7.77 |

For O=C(O)CCCCCC(=O)N1CCc2c(n(Cc3ccccc3)c3ncccc23)C1 , what is its reported pIC50?
6.60

For C[C@]1(C(=O)O)CC[C@H](CC(=O)N2CCc3c(n(Cc4ccc(F)cc4F)c4ncccc34)C2)CC1 , what is its reported pIC50?
7.66

For O=C(O)CCC(=O)N1CCc2c(n(Cc3ccccc3)c3ncccc23)C1 , what is its reported pIC50?
5.27

For O=C(O)c1cccc(CC(=O)N2CCc3c(n(Cc4cccc(F)c4)c4ncccc34)C2)c1 , what is its reported pIC50?
7.00

For O=C(O)CCCCC(=O)N1CCc2c(n(Cc3cccc(F)c3)c3ncccc23)C1 , what is its reported pIC50?
7.30

For O=C(CC12CCC(C(=O)O)(CC1)CC2)N1CCc2c(n(Cc3ccc(F)cc3)c3ncccc23)C1 , what is its reported pIC50?
7.92

For O=C(O)CCCC(=O)N1CCc2c(n(Cc3ccccc3)c3ncccc23)C1 , what is its reported pIC50?
6.08

====

# Assay Details: Drug metabolism in human hepatocytes assessed as compound isomerization by measuring conversion ratio at 1 uM incubated for 2 hrs by LC-MS/MS analysis
# Type: ADME, cell-based, Hepatocyte
# Measurement Parameters: read-out: Drug metabolism
Measured Endpoint: metabolised at 2 h, 1 µM (%)
Please respond with the number in % and leave the unit unwritten.

For O=C(C[C@H]1CC[C@H](C(=O)O)CC1)N1CCc2c(n(Cc3ccc(F)cc3F)c3ncccc23)C1 , what is its reported metabolised at 2 h, 1 µM?
29.8

====

# Study Target: UniProt Q13822
# Assay Details: Inhibition of LysoPLD activity of ATX in human plasma assessed as reduction in choline release using LPC(16:0) as substrate incubated for 15 hrs
# Format: cell-free
Recorded IC50 for the following molecules
Please respond with the number in nM and leave the unit unwritten.

Consider the worked cases shown below.
| Cpd Smiles | Unit Spec | IC50 |
| --- | --- | --- |
| O=C(C[C@H]1CC[C@H](C(=O)O)CC1)N1CCc2c(n(Cc3ccc(F)cc3F)c3ncccc23)C1 | nM | 7.3 |
| O=C(C[C@H]1CC[C@@H](C(=O)O)CC1)N1CCc2c(n(Cc3ccc(F)cc3F)c3ncccc23)C1 | nM | 16 |
| O=C(CC12CCC(C(=O)O)(CC1)C2)N1CCc2c(n(Cc3ccc(F)cc3F)c3ncccc23)C1 | nM | 7.9 |
| C[C@]1(C(=O)O)CC[C@H](CC(=O)N2CCc3c(n(Cc4ccc(F)cc4F)c4ncccc34)C2)CC1 | nM | 25 |

For O=C(CC12CCC(C(=O)O)(CC1)CC2)N1CCc2c(n(Cc3ccc(F)cc3)c3ncccc23)C1 , what is its reported IC50?
6.1

For CC(C)(CCCC(=O)N1CCc2c(n(Cc3cccc(F)c3)c3ncccc23)C1)C(=O)O , what is its reported IC50?
260

For O=C(CC12CCC(C(=O)O)(CC1)C2)N1CCc2c(n(Cc3ccc(F)cc3)c3ncccc23)C1 , what is its reported IC50?
5.5

For O=C(CC12CCC(C(=O)O)(CC1)CC2)N1CCc2c(n(Cc3ccc(F)cc3F)c3ncccc23)C1 , what is its reported IC50?
8.1
